# Measured Target: Avi-KRAS WT (1-169) GppNHp/RAF1 RBD-3xFLAG (52-151) (Homo sapiens)
# Construct: Avi-KRAS WT (1-169)
# Sequence (P01116 1-169 isoform P01116-2): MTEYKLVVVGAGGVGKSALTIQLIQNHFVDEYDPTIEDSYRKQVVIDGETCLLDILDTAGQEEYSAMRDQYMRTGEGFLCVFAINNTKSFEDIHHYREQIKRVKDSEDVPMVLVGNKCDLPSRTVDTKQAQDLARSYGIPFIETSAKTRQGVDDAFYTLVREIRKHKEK
# Assay Explanation: Raf1-KRAS WT-GppNHP disruption HTRF assay (Biological Example 1)
# Type: binding
# Run Conditions: KRAS WT, GppNHp-loaded; class symbols
Listing of recorded IC50 by entry.

Name the recorded IC50 of the compound listed here: C[C@H]1Cn2nc(C(=O)N(C)C)cc2CN1c1nc(OC[C@@]23CCCN2C[C@H](F)C3)nc2c(F)c(-c3ccc(F)c4sc(N)c(C#N)c34)c(C(F)(F)F)cc12 (atropisomer, axis not shown) 100 to 1000 nM
